T/C values by entry
Test system: B6C3F1 mice, Lewis lung carcinoma iv, survival T/C
ASSAY COMMENT: NCI In Vivo Anticancer Drug Screen. Data for tumor model Lewis Lung Carcinoma (intravenous) in B6C3F1 mice
CONDITION SET: endpoint: median survival time; dose: 25.0 mg/kg/injection; schedule: Q01DX009 (ip); vehicle: saline; higher = longer survival
Procedure: The antitumor activity of compounds was measured in mice bearing transplantable tumors. Survival or tumor size were measured and the results are expressed as the measurement made in the treated group (T) divided by the measurement made in the vehicle treated control group (C). The tumor model used in this assay is Lewis Lung Carcinoma (intravenous) in B6C3F1 mice
Toxic doses and inconclusive results are not listed.
MEASUREMENT KIND: T/C

>  <COMPOUND>
CS(=O)(=O)CS(=O)(=O)OCCCl

>  <MEASUREMENT KIND>
T/C

>  <OBSERVED VALUE>
120 % of control

$$$$
>  <COMPOUND>
COC(OC(CO)C(O)S(=O)(=O)O)C(O)S(=O)(=O)O (configuration not stated)

>  <MEASUREMENT KIND>
T/C

>  <OBSERVED VALUE>
106 % of control

$$$$
>  <COMPOUND>
CCCCn1cnc2c(=S)nc[nH]c21

>  <MEASUREMENT KIND>
T/C

>  <OBSERVED VALUE>
112 % of control

$$$$
>  <COMPOUND>
CC1=NN(c2cccc(S(=O)(=O)O)c2)C(=O)C1N=Nc1cc(Cl)cc(S(=O)(=O)O)c1O.CC1=NN(c2cccc(S(=O)(=O)O)c2)C(=O)C1N=Nc1cc(Cl)cc(S(=O)(=O)O)c1O.[Cr] (configuration not stated)

>  <MEASUREMENT KIND>
T/C

>  <OBSERVED VALUE>
92 % of control

$$$$
>  <COMPOUND>
C(=N/NC1=NCCN1)/c1c2ccccc2c(/C=N\NC2=NCCN2)c2ccccc12

>  <MEASUREMENT KIND>
T/C

>  <OBSERVED VALUE>
100 % of control

$$$$
>  <COMPOUND>
COc1cc(C2c3cc4c(cc3[C@@H](OC3OC5CO[C@@H](C)OC5C(O)C3O)[C@H]3COC(=O)C23)OCO4)cc(OC)c1OC (some centres not stated)

>  <MEASUREMENT KIND>
T/C

>  <OBSERVED VALUE>
121 % of control

$$$$
>  <COMPOUND>
C[Si](C)(C)O/C=C1/CCOC1=O

>  <MEASUREMENT KIND>
T/C

>  <OBSERVED VALUE>
101 % of control

$$$$
>  <COMPOUND>
Cc1ncc([N+](=O)[O-])n1CCSC(N)=O

>  <MEASUREMENT KIND>
T/C

>  <OBSERVED VALUE>
102 % of control

$$$$
>  <COMPOUND>
O=c1n(CC2CO2)c(=O)n(CC2CO2)n1CC1CO1 (configuration not stated)

>  <MEASUREMENT KIND>
T/C

>  <OBSERVED VALUE>
108 % of control

$$$$
>  <COMPOUND>
OCCN1CCN(CC/C=C2/c3ccccc3Sc3ccc(Cl)cc32)CC1

>  <MEASUREMENT KIND>
T/C

>  <OBSERVED VALUE>
110 % of control

$$$$
>  <COMPOUND>
CN(C)CCC(=O)C(=Cc1ccc(O)cc1)C(=O)CCN(C)C

>  <MEASUREMENT KIND>
T/C

>  <OBSERVED VALUE>
101 % of control

$$$$
>  <COMPOUND>
Cc1nnc2ncccn12

>  <MEASUREMENT KIND>
T/C

>  <OBSERVED VALUE>
110 % of control

$$$$
